- SYSTEM UNDER TEST: hCLN7 (EGFP-CLN7, MFSD8) (Homo sapiens, UniProt Q8NHS3)
- Construct: full length, 518 residues, N-terminal EGFP tag kept (pEGFP-C2); PM-targeted mutant in HeLa
- Sequence (Q8NHS3 whole entry): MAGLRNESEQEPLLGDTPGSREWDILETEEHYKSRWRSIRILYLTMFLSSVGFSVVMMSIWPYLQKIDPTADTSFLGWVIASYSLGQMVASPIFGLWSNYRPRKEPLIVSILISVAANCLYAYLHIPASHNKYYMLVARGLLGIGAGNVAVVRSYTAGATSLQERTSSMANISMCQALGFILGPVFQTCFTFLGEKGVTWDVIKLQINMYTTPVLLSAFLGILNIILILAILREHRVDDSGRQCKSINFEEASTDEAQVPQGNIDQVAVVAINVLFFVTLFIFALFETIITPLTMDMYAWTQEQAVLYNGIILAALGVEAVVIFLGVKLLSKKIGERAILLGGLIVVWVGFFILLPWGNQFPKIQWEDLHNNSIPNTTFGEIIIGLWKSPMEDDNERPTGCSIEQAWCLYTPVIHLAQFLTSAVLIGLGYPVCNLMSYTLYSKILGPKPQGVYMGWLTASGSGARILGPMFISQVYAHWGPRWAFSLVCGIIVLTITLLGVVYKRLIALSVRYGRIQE
- ASSAY NOTES: whole-endolysosomal patch clamp, Cl- current
ASSAY METRIC: pIC50
Here pIC50 is given on a logarithmic scale as minus log10 of the concentration in mol/L.

Use the examples below as a reference point.
Input line: For O=C(O)c1cc([N+](=O)[O-])ccc1NCCCc1ccccc1 , what is its reported pIC50?
Output line: 8.16

Input line: Return reported pIC50; argument: O=S(=O)(O)c1cc(N=C=S)ccc1/C=C/c1ccc(N=C=S)cc1S(=O)(=O)O
Output line: 4.49

Now turn to the next compound.
Input line: Look up pIC50 for this compound: O=C(O)c1cccnc1Nc1cccc(C(F)(F)F)c1
Output line: 4.37
